assay: reduced mouse 2C T cell binding to pMHC/ICAM-1 vesicles – MLPCN validation set, flow cytometry, LFA-1/ICAM-1 modulator project, pilot screen (AID 2523); conditions: 2C mouse CD8+ T cells, at 7 µM, stronger effect = lower value;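 also: mean PE anti-B7-1 fluorescence of CD8+ cells relative to row control; 100% = QL9-loaded vesicles with DMSO vehicle in the same plate row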
The reader will find reported vesicle binding response values listed item by item below.
Supply the numeric figure in %, leaving out any unit text.

For orientation, consider the following solved cases.
# COMPOUND, vesicle binding response (%)
rows = [
    ("Cc1ccnc(NS(=O)(=O)c2ccc(N)cc2)n1", 203),
    ("COc1ccc(CCNc2ncnc3c2[nH]c2cc(OC)c(OC)cc23)cc1OC", 178),
    ("COc1ccccc1NC(=O)C12CCC(C)(C(=O)C1)C2(C)C (stereo unspecified)", 173),
    ("CC(=O)N1CCn2c3c(c4cc(C)ccc42)CCCC31 (stereo unspecified)", 208),
]

## Task Recall and state the measured vesicle binding response for COc1ccc(C(C)=O)c2c1OCCO2 .
## Result 891

## Task For COc1ccccc1N=CC1=C(O)CC(c2ccccc2)CC1=O (stereo unspecified) , write its vesicle binding response.
## Result 153

Value source: PubChem BioAssay
